# assayed_system: HIV-1 NefNL4-3 (Human immunodeficiency virus type 1 group M subtype B, UniProt P03406, A33V/T15A/T51N/V11I)
# protocol_text: Surface plasmon resonance binding to recombinant full-length Nef (NL4-3)
# experimental_parameters: Table 4; 1:1 Langmuir fit; T = 1/koff
recorded_endpoint: T, minutes (residence time)
Reply with the number, then its unit.

# compound, T, minutes (residence time)
data = [
    ("CC(=O)N1CCC(CCc2c(-c3ccc(C(F)(F)F)cn3)nn(-c3nc4ccccc4[nH]3)c2O)CC1", "3.64E + 00 minutes"),
]

Prompt line: Suppose we examine the compound CN(C)C(=O)N1CCCC(Cc2c(C3CC3)nn(-c3nc4ccccc4[nH]3)c2O)C1 (stereo not shown) ; what T, minutes (residence time) value has been reported?
Response line: 3.62E + 00 minutes

Prompt line: Look up T, minutes (residence time) for this compound: O=C(Cc1ccncc1)N1CCCC1c1nn(-c2nc3ccccc3[nH]2)c(O)c1CCc1ccc(F)cc1 (stereo not shown)
Response line: 7.31E + 00 minutes

Prompt line: Which T, minutes (residence time) is reported for this compound? "CC(C)(C)OC(=O)N1CCN(Cc2nn(-c3nc4ccccc4[nH]3)c(O)c2CCc2ccc(F)cc2)CC1"
Response line: 1.65E + 00 minutes

---

# assayed_system: HIV-1 NefNL4-3 (Human immunodeficiency virus type 1 group M subtype B, UniProt P03406, A33V/T15A/T51N/V11I)
# protocol_text: Surface plasmon resonance binding to recombinant full-length Nef (NL4-3)
# experimental_parameters: response units at 30 μM relative to Nef immobilized on the SPR chip
recorded_endpoint: RU30/RUNef (extent of binding) (E- 03)
Numbers only; they are read as E- 03.

Solved entries:
# compound, value_units, RU30/RUNef (extent of binding)
rows = [
    ("CC(C)(C)c1nn(-c2nc3ccccc3[nH]2)c(O)c1CCc1ccc(F)cc1", "E- 03", 9.49),
    ("CC(C)(C)OC(=O)N1CCC[C@H]1c1nn(-c2nc3ccccc3[nH]2)c(O)c1CCc1ccc(F)cc1 (stereo in doubt)", "E- 03", 5.81),
    ("CC(=O)N1CCC(CCc2c(-c3ccc(C(F)(F)F)cn3)nn(-c3nc4ccccc4[nH]3)c2O)CC1", "E- 03", 1.32),
    ("CN(C)C(=O)N1CCCC(Cc2c(C3CC3)nn(-c3nc4ccccc4[nH]3)c2O)C1 (stereo not drawn)", "E- 03", 5.13),
    ("O=C(COCc1ccncc1)N1CCC(Cc2nn(-c3nc4ccccc4[nH]3)c(O)c2CCc2ccc(F)cc2)CC1", "E- 03", 4.88),
]

Prompt line: Field request: RU30/RUNef (extent of binding) | item: "Oc1c(CC2CCOCC2)c(CCC2CCOCC2)nn1-c1nc2ccccc2[nH]1"
Response line: 8.86

Prompt line: What does the record list as RU30/RUNef (extent of binding) for "Cc1ccn(CCc2c(-c3ccc(C(F)(F)F)cc3)nn(-c3nc4ccccc4[nH]3)c2O)n1" ?
Response line: 5.56

Prompt line: Fill in the blank: the reported RU30/RUNef (extent of binding) of "Oc1c(CCC2CCN(c3ncc(F)cn3)CC2)c(C2CC2)nn1-c1nc2cc(Cl)ccc2[nH]1" is ____.
Response line: 2.23

Prompt line: Record request: RU30/RUNef (extent of binding) value, item CC(=O)N1CCCC(c2nn(-c3nc4ccccc4[nH]3)c(O)c2CCc2ccc(F)cc2)C1 (stereo not drawn)
Response line: 5.14

Prompt line: RU30/RUNef (extent of binding) for "CC(C)(C)OC(=O)N1CCC(c2nn(-c3nc4cc(F)c(F)cc4[nH]3)c(O)c2CCc2ccc(F)cc2)CC1" ?
Response line: 4.76

Prompt line: Any idea what RU30/RUNef (extent of binding) was measured for "Oc1c(CCc2ccc(F)cc2)c(-c2ccc3c(c2)OC(F)(F)O3)nn1-c1nc2ccccc2[nH]1" ?
Response line: 4.38

Prompt line: Dear colleague, I am looking for the recorded RU30/RUNef (extent of binding) of the following compound: "CC(C)(C)OC(=O)N1CCC(c2nn(-c3nc4ccccc4[nH]3)c(O)c2CCc2ccc(F)cc2)CC1"
Response line: 4.09
